Hey, just so you know, these numbers are from patent US20180162947A1.

assayedTarget: T1, recombinant human CSF-1R (form not stated) (human, UniProt P07333 20-512, limits assumed)
T1 construct: for the ELISA no species is stated; also called recombinant CSF-1R; recombinant CSF-1R protein
T1 sequence (P07333 20-512 limits assumed): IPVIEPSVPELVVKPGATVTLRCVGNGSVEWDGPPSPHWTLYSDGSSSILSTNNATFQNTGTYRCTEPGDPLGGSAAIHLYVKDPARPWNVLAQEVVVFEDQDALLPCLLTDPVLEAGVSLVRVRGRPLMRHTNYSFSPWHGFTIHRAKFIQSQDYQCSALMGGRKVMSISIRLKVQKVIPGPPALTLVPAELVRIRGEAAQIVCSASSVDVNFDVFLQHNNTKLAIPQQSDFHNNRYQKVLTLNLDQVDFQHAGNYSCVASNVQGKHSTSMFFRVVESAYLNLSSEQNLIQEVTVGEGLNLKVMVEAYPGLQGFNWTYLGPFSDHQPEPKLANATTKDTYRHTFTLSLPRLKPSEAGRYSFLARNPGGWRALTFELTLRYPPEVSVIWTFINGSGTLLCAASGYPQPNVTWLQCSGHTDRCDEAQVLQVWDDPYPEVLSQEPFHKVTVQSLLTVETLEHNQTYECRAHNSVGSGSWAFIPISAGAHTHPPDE
assayProcedure: BIAcore, experiment 3 of 3
measuredAttribute: koff
State the result as a value with its unit after it.

The recorded koff for entry chimeric antibody 969 (rat variable regions, human gamma-4 heavy chain constant region and human kappa chain constant region) (antibody, human IgG4, V domains shown, Alexa-488 label in the cell-based affinity assay; not carried by the letters., Full-length human IgG4 (S241P)/kappa chimeric; also called Ab969) VH: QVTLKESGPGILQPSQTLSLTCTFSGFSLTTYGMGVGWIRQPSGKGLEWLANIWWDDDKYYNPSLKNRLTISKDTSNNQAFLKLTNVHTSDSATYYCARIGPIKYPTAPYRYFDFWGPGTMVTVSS VL: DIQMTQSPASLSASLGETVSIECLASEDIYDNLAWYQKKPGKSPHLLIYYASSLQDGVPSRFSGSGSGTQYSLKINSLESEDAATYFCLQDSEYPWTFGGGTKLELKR equals 9.51e-06 s⁻¹
